# Tested on: Plasmodium falciparum NF54 gametocytes
# experiment summary: viability index relative to DMSO control (fraction); higher = less gametocyte killing
# details: gametocyte stage: Stage III viability index; 12.5 µM; incubation time: 72 h
recorded endpoint: viability index

CCCCc1c(CCC)c(=N)c2ccccc2n1C | 1
COc1ccc(CNC(=O)c2cc3c(=O)n4ccccc4nc3n(CCc3ccccc3)c2=N)cc1 | 0.826
COc1ccc(C=C2SC(Nc3ccccc3)=NC2=O)cc1 | 0.663
O=C(NC(c1ccccc1)c1ccc2cccnc2c1O)c1ccccc1 (stereo unspecified) | 0.0453
Cc1c(C)n(CC(O)CNC2CCCCC2C)c2ccccc12 (stereo unspecified) | 0.644
CN(C)c1ccc(N=Cc2ccc(N3CCOCC3)cc2)cc1 | 0.927
CC(C)(C)CC(C)(C)NCC(O)COc1ccc(Cl)cc1Cl (stereo unspecified) | 0.0665
CN(C)c1ccc(C=Cc2nc(=O)c3ccccc3o2)cc1 | 0.82
CN1c2ccccc2N(C)C1c1ccc2c(c1)OCO2 | 1.05
Cc1cc(Nc2ccc(C)c(Cl)c2)n2nc(C(F)(F)F)nc2n1 | 0.983
Cc1ccc(CSCc2ccc(C(=O)NC3CC3)o2)cc1 | 1.07
COc1ccc(C(=O)Nc2ccc3nc(N4CCCCC4)cc(C)c3c2)cc1OC | 0.95
COc1ccc2nc(C)cc(Nc3cccc(O)c3)c2c1 | 0.896
CN(C)CCCNc1c2ccccc2nc2ccccc12 | 0.0835
Cc1sc(NC(=O)c2ccccc2)c(C(c2cccs2)N2CCN(c3ccccc3)CC2)c1C (stereo unspecified) | 0.905
OC(CNCc1ccccc1)Cn1c2ccccc2c2ccccc21 (stereo unspecified) | 0.172
COc1ccc(CCn2c(=N)c(C(=O)NCc3cccnc3)cc3c(=O)n4cccc(C)c4nc32)cc1 | 0.917
CC(=O)c1ccc(NC(=O)CSc2nc(-c3ccccc3Cl)ns2)cc1 | 0.308
Cn1c(=O)c2cc(C(=O)NCCCN3CCCCCC3)sc2c2ccccc21 | 0.926
Cc1ccc2nc(C)cc(Nc3cccc(C(F)(F)F)c3)c2c1 | 0.803
CC1CCCCN1CCCNC(=O)c1ccc2c(c1)sc1nc(-c3ccc(F)cc3)cn12 (stereo unspecified) | 1.05
Cc1ccc(Cn2c(N3CCC(C(=O)NCc4cccs4)CC3)nc3ccccc32)cc1 | 0.545
CCOc1ccccc1NC(=O)CN1CCN(C(=O)c2ccco2)CC1 | 1.07
Cc1cccc(-n2ncc3c(=O)[nH]c(-n4nc(C)cc4NC(=O)c4cc5ccccc5o4)nc32)c1 | 0.792
O=C(CSc1nccn2nc(-c3ccccc3)cc12)Nc1cc(C(F)(F)F)ccc1Cl | 0.973
COc1ccc(C(=O)C2CC2c2ccc(Cl)cc2)cc1 (stereo unspecified) | 1.03

----------
Overview of recorded viability index for various compounds
# System: Plasmodium falciparum NF54 gametocytes
# experiment summary: viability index relative to DMSO control (fraction); higher = less gametocyte killing
# details: gametocyte stage: Stage IV viability index; 12.5 µM; incubation time: 72 h
recorded endpoint: viability index

Cc1cccc(N2C(=O)C3C(C2=O)C2(c4ccccc4)C(=O)C3(c3ccccc3)C(c3ccc4c(c3)OCO4)=C2c2ccc3c(c2)OCO3)c1 (stereo not drawn) | 0.886
CCCOCc1cc(CN2CCN(c3cccc(Cl)c3)CC2)c(O)c2ncccc12 | 0.0127
COc1cc(-c2nc(-c3ccc(Sc4ccccc4)cc3)c(-c3ccccc3)[nH]2)cc(OC)c1O | 0.0222
Oc1ccc(Cl)cc1CNc1nc2ccccc2[nH]1 | 0.891
COc1ccc(CNC2CCN(c3ccc(NC(=O)c4cccc(Cl)c4)cc3)CC2)cc1OC | 0.79
COc1ccc(OC)c(C2C3=C(CC(C)(C)CC3=O)N(c3ccc(Cl)c(Cl)c3)C3=C2C(=O)CC(C)(C)C3)c1 | 0.807
Oc1ccc(-c2nc(-c3ccc4oc5ccc(-c6[nH]c(-c7ccc(O)cc7)nc6-c6ccccc6)cc5c4c3)c(-c3ccccc3)[nH]2)cc1 | 0
O=C(Nc1ccc(CN2CCOCC2)cc1)c1ccc(-c2ccc(Br)cc2)o1 | 0.787

----------
# System: Plasmodium falciparum NF54 gametocytes
# experiment summary: viability index relative to DMSO control (fraction); higher = less gametocyte killing
# details: gametocyte stage: Stage III viability index; 12.5 µM; incubation time: 72 h
The label is fulfilled for viability index below 0.7 and not fulfilled for viability index equal to or exceeding 0.7.

FC(F)(F)c1ccc(Nc2nnnc3ccccc23)cc1 | not fulfilled
FC(F)(F)c1cccc(CNC2CCN(CCc3ccccc3)CC2)c1 | not fulfilled
CCCCCCc1cc2cc(-c3csc(C=Cc4ccccc4)n3)c(=O)oc2cc1O | fulfilled
O=c1nc(C=Cc2ccc(Br)cc2)oc2ccccc12 | not fulfilled
CC(C)CNC(=O)c1c(N)n(CCc2ccccc2F)c2nc3ccccc3nc12 | fulfilled
CCOC(=O)c1cnc2ccc(OC)cc2c1Nc1ccc(N2CCN(C)CC2)cc1 | not fulfilled

----------
Overview of recorded viability index for various compounds
# System: Plasmodium falciparum NF54 gametocytes
# experiment summary: viability index relative to DMSO control (fraction); higher = less gametocyte killing
# details: gametocyte stage: Stage II viability index; 12.5 µM; incubation time: 72 h
recorded endpoint: viability index

CCOc1cc2c(cc1OCC)C(c1cc(C)c(O)c(C)c1)NCC2 (configuration not stated) | 0.123
CSC1=NC(=Nc2c(C)cccc2C)C2(CCC(C(C)(C)C)CC2)N1c1ccc(Cl)cc1 (configuration not stated) | 0.816
CCCCCCC(O)(c1ccc(F)cc1)C(CN1CCOCC1)c1ccccc1 (configuration not stated) | 0.694
COc1ccc2nc(C)cc(Nc3ccccc3O)c2c1 | 0.625
CCc1ccc(Nc2cc(C)nc3nc(C)nn23)cc1 | 0.736
CCOC(=O)c1cnc2c(CC)cccc2c1O | 0.838
O=C(Nc1ccc(Cl)cc1)N1CCN(c2ccc3nncn3n2)CC1 | 1.02

----------
Overview of recorded viability index for various compounds
# Test system: Plasmodium falciparum NF54 gametocytes
# experiment summary: viability index relative to DMSO control (fraction); higher = less gametocyte killing
# details: gametocyte stage: Stage III viability index; 12.5 µM; incubation time: 72 h
recorded endpoint: viability index

C=CCc1c(C)nc2ccccc2c1O | 0.798
Cc1ccc(OCCCCCCNCCO)c(C)c1 | 1.05
Cc1ccccc1OCCSc1nc2ccc(NC(=O)c3ccccc3)cc2s1 | 0.944
CCN1CCN(c2c(C(=O)c3ccccc3)cnc3cc(OC)c(OC)cc23)CC1 | 1.22

----------
# System: Plasmodium falciparum NF54 gametocytes
# experiment summary: viability index relative to DMSO control (fraction); higher = less gametocyte killing
# details: gametocyte stage: Stage III viability index; 12.5 µM; incubation time: 72 h
recorded endpoint: viability index

CCc1ccc(Nc2cc(C)c3ccc(O)cc3n2)cc1 | 0.706
COc1ccc(-c2nonc2NC(=O)c2cccc(Cl)c2)cc1OC | 0.505
COc1ccc(CCN2C(=O)c3[nH]nc(-c4cc(Cl)c(C)cc4O)c3C2c2ccccc2F)cc1 (configuration not stated) | 0.6
O=C(NCC(c1ccsc1)N1CCCCCC1)c1ccc(C(F)(F)F)cc1 (configuration not stated) | 0.843
c1ccc2c(NCCc3c[nH]c4ccccc34)c3ccccc3nc2c1 | 0.609
CN1C=C(c2ccc3ccccc3n2)C(c2c[nH]c3ccccc23)c2ccccc21 (configuration not stated) | 0.273
COc1ccc(NC(=O)C2c3ccccc3C(=O)N(CC(C)C)C2c2cccs2)cc1 (configuration not stated) | 0.0354
Cc1cccc(N2C(=O)C3C(C2=O)C2(c4ccccc4)C(=O)C3(c3ccccc3)C(c3ccc4c(c3)OCO4)=C2c2ccc3c(c2)OCO3)c1 (configuration not stated) | 1.08
CCOC(=O)c1cnc2ccc(CC)cc2c1O | 0.734
c1ccc(CNc2nc(Nc3ccccc3)nc3ccccc23)cc1 | 0.586
Oc1c(C(Nc2ccccn2)c2cccc(Oc3ccccc3)c2)ccc2cccnc12 (configuration not stated) | 1.04
COc1ccc(-c2cc3c(SCC(=O)Nc4cc(C(F)(F)F)ccc4Cl)nccn3n2)cc1 | 1.06
CC(=O)NCCc1nc2ccccc2n1Cc1ccc(C(C)C)cc1 | 0.883
CCCN(CCC)CCCNC(=O)c1cc2c(-c3ccc(OC)c(OC)c3)nn(C)c2s1 | 0.996
O=C(NC1CCN(Cc2ccccc2)CC1)c1cc(C(=O)NC2CCN(Cc3ccccc3)CC2)cc(C(=O)NC2CCN(Cc3ccccc3)CC2)c1 | 0.0393
COCCn1c(C)nc2ccccc2c1=O | 0.733
CCCCNc1nc(NC(C)(C)C)nc(NC(C)(C)C)n1 | 0.223
CN(C)CCCNCc1ccc(-c2ccc(F)c(Cl)c2)o1 | 0.376
CCN1CCN(Cc2ccc(NC(=O)c3cc4ccc5cccnc5c4[nH]3)cc2)CC1 | 1.09
COc1ccc(C(=O)NC(c2ccccc2Cl)c2cc(Cl)c3cccnc3c2O)cc1 (configuration not stated) | 0.167
COCCNCC(O)Cn1c2ccc(Cl)cc2c2cc(Cl)ccc21 (configuration not stated) | 0.407
CCOC(=O)c1c(C)n(-c2ccc(Cl)cc2)c2ccc(OC(=O)C=Cc3ccccc3)cc12 | 1.01
O=C(O)C1Cc2c([nH]c3ccccc23)C(c2ccc(Cl)cc2Cl)N1 (configuration not stated) | 1.08
CC(C)=CCN1CCC(C(=O)Nc2ccc(-c3nc4ccccc4[nH]3)cc2)CC1 | 0.921
CCc1ccc(Nc2cc(C)nc3nc(C)nn23)cc1 | 1.01
COc1nc(Nc2ccc(C(C)C)cc2)nc(OC)n1 | 0.965
N#Cc1nc(Cc2cccc3ccccc23)oc1N1CCN(C(c2ccccc2)c2ccccc2)CC1 | 1.23

Hello, the source for this data is the supplement of paper PMC4723716, in case you need it.
